procedure-text: NCI Yeast Anticancer Drug Screen. Data for the mgt1 strain (AID 153)
run-conditions: S. cerevisiae mgt1 mutant growth inhibition; at 1.2 µM; active compounds read high
Compounds without any hit were thinned out: in the full panel of roughly 79,000, 15% have a hit.
// values below are reported growth inhibition
Number only, in %; omit the unit.

molecule: Cc1cc(S(=O)(=O)Nc2nnc3cnc4ccccc4n23)c(S)cc1Cl
measured-result: -2
--
molecule: O=C1OC(OC/C(Br)=C(\Br)COC2OC(=O)C(Cl)=C2Cl)C(Cl)=C1Cl (stereo unspecified)
measured-result: -5
--
molecule: N#CNC(N)=Nc1cc2ccccc2c2ccccc12
measured-result: 27
--
molecule: Cc1cc(N(CCOS(C)(=O)=O)CCOS(C)(=O)=O)ccc1C=Nc1ccc(-c2nc(Cc3ccccc3)sc2C)cc1
measured-result: -24
--
molecule: CCOC(=O)COc1c(OC)cc(C2C3=C(COC3=O)Oc3cc4c(cc32)OCO4)cc1OC (stereo unspecified)
measured-result: -3
--
molecule: Cc1sc2ccc3ccccc3c2[n+]1C
measured-result: -9

Lookup result for CCOc1ccc(NC(=O)C2=C(C)NC(C)=C(C(=O)Nc3ccc(OCC)cc3)C2c2cccc([N+](=O)[O-])c2)cc1 ; measured growth inhibition: -1

Lookup result for CCCOC(=O)C(F)C(Br)C(=O)OCCC (stereo unspecified) ; measured growth inhibition: 54

Lookup result for CC(C)OC(=O)Nc1ccc2nc(-c3cscn3)[nH]c2c1 ; measured growth inhibition: -5

Lookup result for CC(C)(C)c1ccc(NS(=O)(=O)c2ccc(N)cc2)cc1 ; measured growth inhibition: 0

Lookup result for Cc1c(C)c(C)c(CSC(=N)N)c(C)c1C ; measured growth inhibition: -52

====

procedure-text: NCI Yeast Anticancer Drug Screen. Data for the wt1 strain (AID 149);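 also: 0% = growth of vehicle-treated wt1 cultures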
run-conditions: S. cerevisiae wt1 strain (SPY 50644) growth inhibition; at 33.0 µM
About 79,000 compounds went through this panel and 15% of them were active in at least one assay; those are over-represented in the sample as a whole. Active and inactive are the calls of the source. No stated cut-off is given here; in the data, active means growth inhibition above about 70%; inactive means the rest.
Pick one: y for active, n for inactive

compound: S=c1[nH]c2cc3ccccc3cc2[nH]1
category: n
//
compound: C[C@@](O)(/C=C/[C@H]1CC=CC(=O)O1)[C@@H](C[C@@H](O)\C=C/C=C\C=C\CO)OP(=O)(O)O
category: n
//
compound: O=C(CC(C(=O)O)N1CCOCC1)c1ccccc1 (stereo not given)
category: n
//
compound: Cc1cc2c3ccccc3c3ccccc3c2nn1
category: n
//
compound: O=Cc1ccc2c(c1)C(=O)c1ccccc1C2=O
category: n

Ask: What did this assay record as the result for CC(C)(C)[Si](C)(C)OCC1CCC(n2cnc3c(NC(=O)c4ccccc4)ncnc32)O1 (stereo not given) ?
Result: n

Ask: What did this assay record as the result for CCOC(=O)C1=C(C)NC(C)=C(C(=O)OCCNC(=O)c2ccc(N=[N+]=[N-])cc2)C1c1ccccc1C(F)(F)F (stereo not given) ?
Result: n

Ask: What did this assay record as the result for CCCCOP(=O)(CCCP(=O)(OCCCC)OCCCC)OCCCC ?
Result: n

Ask: What did this assay record as the result for O=c1ccc(=O)n(-c2ccccc2)[nH]1 ?
Result: y

Ask: What did this assay record as the result for O=C1CSC(c2cccc(Cl)c2)N1c1ccc(-c2ccc(-n3c(-c4ccccc4)nc4ccccc4c3=O)cc2)cc1 (stereo not given) ?
Result: n

Ask: What did this assay record as the result for COc1cccc2c1C(=O)c1c(O)c3c(c(O)c1C2=O)CC(O)(C(O)CO)CC3OC1CC(N2CCOCC2)C(O)C(C)O1 (stereo not given) ?
Result: y

Ask: What did this assay record as the result for COc1ccc2[nH]cc([C@@H]3C4CCC(C4)[C@H]3NCc3cccc(CN[C@H]4C5CCC(C5)[C@@H]4c4c[nH]c5ccc(OC)cc45)c3)c2c1 ?
Result: n

Ask: What did this assay record as the result for C[CH2][Sn]([CH2]C)([O]C(=O)C(N)Cc1ccccc1)[O]C(=O)C(N)Cc1ccccc1 (stereo not given) ?
Result: n

Ask: What did this assay record as the result for OCc1ccccc1Cc1ccccc1 ?
Result: n

Ask: What did this assay record as the result for CC(C)C(C)/C=C\C(C)C1CCC2C3=CC=C4CC(O)CCC4(C)C3CCC21C (stereo not given) ?
Result: n

Ask: What did this assay record as the result for COc1cc2ccnc(-c3c4ccccc4c(N)c4c(OC)c(OC)ccc34)c2cc1OC ?
Result: n

Ask: What did this assay record as the result for CN(C)CCNc1ccc2ncnc3c2c1C(=O)c1ccccc1-3 ?
Result: n
